# Target desc: human Fatty Acid Synthase (Homo sapiens)
# Construct: made in house
# Test summary: Human FAS enzyme assay (decrease in NADPH fluorescence)
# Type: biochemical
# Experimental parameters: % inhibition at a concentration of 100 micromolar
This listing pairs compounds with measured inhibition at 100 µM.
Readout type: inhibition at 100 µM (%)

[[record]]
compound = "Cc1ccc(NS(=O)(=O)c2ccccc2C#N)cc1C(=O)N1CCC(c2ccc(C#N)cc2)CC1"
unit_abbreviation = "%"
value_measured = 79

[[record]]
compound = "Cc1ccc(C(=O)N2CCC(c3ccc(C#N)cc3)CC2)cc1NS(=O)(=O)c1cccc(C(N)=O)c1"
unit_abbreviation = "%"
value_measured = 90

[[record]]
compound = "Cc1ccc(C(=O)N2CCC(c3ccc(Oc4nccc(C(F)(F)F)n4)cc3)CC2)cc1NS(C)(=O)=O"
unit_abbreviation = "%"
value_measured = 88

[[record]]
compound = "Cc1ccc(C(=O)N2CCC(c3ccc(CNC(=O)CO)cc3)CC2)cc1NS(C)(=O)=O"
unit_abbreviation = "%"
value_measured = 81.5

[[record]]
compound = "Cc1ccc(C(=O)N2CCC(c3ccc(C#N)cc3)CC2)cc1NS(=O)(=O)CC1CCCCC1"
unit_abbreviation = "%"
value_measured = 93

[[record]]
compound = "Cc1ccc(C(=O)N2CCC(c3ccc(OC(F)(F)F)cc3)CC2)cc1NS(C)(=O)=O"
unit_abbreviation = "%"
value_measured = 96

[[record]]
compound = "Cc1ccc(C(=O)N2CCC(c3ccc(C(F)(F)F)cc3)CC2)cc1NS(=O)(=O)C1CCS(=O)(=O)C1 (stereo not shown)"
unit_abbreviation = "%"
value_measured = 91


---

This listing pairs compounds with measured inhibition at 100 µM.
# Target desc: human Fatty Acid Synthase (Homo sapiens, UniProt P49327)
# Construct: made in house
# Sequence (P49327 whole entry): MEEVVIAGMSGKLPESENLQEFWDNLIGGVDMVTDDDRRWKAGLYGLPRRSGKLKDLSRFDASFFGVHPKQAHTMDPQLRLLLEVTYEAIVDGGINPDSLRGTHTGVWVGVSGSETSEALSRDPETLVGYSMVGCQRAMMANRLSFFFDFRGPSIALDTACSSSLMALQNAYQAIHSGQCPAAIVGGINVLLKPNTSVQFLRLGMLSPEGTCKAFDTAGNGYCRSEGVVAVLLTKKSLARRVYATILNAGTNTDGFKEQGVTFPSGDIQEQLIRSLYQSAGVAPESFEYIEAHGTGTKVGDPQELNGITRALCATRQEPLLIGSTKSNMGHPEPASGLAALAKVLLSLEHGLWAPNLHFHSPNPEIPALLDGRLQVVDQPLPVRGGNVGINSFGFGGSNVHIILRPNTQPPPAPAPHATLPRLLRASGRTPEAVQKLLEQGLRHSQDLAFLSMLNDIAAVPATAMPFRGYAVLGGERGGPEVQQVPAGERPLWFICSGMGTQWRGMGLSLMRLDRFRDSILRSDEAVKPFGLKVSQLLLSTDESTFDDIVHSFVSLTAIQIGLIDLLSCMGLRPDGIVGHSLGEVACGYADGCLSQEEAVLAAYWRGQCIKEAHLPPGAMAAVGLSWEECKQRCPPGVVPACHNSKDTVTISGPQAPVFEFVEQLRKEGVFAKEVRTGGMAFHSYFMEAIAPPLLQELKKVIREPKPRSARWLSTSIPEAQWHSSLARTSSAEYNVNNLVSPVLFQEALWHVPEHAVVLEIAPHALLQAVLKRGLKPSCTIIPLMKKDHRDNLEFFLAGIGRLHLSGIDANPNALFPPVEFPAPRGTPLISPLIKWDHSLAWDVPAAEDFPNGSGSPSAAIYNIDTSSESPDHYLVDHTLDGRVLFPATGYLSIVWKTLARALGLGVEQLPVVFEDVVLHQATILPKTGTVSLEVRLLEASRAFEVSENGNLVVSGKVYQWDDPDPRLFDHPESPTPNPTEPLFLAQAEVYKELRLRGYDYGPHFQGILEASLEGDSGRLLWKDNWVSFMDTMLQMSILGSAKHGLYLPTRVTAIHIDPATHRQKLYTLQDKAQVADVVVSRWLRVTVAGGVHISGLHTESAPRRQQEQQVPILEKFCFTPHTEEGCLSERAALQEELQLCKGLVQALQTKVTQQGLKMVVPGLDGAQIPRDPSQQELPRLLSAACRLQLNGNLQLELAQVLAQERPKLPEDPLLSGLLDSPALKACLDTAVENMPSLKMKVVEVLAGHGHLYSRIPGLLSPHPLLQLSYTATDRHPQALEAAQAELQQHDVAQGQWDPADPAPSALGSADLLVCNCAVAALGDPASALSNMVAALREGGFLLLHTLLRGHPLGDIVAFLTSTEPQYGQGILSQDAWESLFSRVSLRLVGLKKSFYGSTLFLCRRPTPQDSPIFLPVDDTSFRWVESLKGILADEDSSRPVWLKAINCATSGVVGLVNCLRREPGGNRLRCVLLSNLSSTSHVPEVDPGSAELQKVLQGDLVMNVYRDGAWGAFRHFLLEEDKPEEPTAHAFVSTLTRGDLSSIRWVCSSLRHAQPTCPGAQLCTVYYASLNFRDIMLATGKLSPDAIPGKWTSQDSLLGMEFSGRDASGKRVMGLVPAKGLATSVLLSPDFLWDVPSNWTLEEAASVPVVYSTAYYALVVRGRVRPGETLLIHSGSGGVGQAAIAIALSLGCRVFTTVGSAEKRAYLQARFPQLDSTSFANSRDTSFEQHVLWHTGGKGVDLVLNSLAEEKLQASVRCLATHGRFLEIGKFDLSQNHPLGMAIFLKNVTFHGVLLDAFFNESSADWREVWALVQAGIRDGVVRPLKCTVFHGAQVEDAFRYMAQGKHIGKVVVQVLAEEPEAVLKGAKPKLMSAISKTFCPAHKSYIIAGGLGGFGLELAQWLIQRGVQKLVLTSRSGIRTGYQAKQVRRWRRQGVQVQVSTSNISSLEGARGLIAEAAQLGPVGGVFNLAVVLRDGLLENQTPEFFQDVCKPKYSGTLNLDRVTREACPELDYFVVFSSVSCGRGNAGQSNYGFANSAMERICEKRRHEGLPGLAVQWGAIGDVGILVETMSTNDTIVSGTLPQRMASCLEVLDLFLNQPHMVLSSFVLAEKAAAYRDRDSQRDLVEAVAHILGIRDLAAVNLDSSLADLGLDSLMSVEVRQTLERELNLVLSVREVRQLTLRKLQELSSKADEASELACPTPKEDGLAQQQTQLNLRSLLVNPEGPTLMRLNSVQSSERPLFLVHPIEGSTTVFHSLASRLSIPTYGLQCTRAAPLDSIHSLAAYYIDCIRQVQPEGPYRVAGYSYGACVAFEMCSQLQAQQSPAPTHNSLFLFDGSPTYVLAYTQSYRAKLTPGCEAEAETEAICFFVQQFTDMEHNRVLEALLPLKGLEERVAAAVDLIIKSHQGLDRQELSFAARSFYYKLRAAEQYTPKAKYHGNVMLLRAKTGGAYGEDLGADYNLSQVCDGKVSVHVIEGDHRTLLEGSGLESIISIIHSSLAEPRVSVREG
# Test summary: Human FAS enzyme assay (decrease in NADPH fluorescence)
# Format: biochemical
# Experimental parameters: % inhibition at a concentration of 100 micromolar
Readout type: inhibition at 100 µM

[[record]]
smiles_str = "Cc1ccc(NS(=O)(=O)Cc2ccccc2F)cc1C(=O)N1CCC(c2ccc(C#N)cc2)CC1"
readout_type = "inhibition at 100 µM"
value_measured = "94%"

[[record]]
smiles_str = "Cc1ccc(C(=O)N2CCC(c3ccc(C#N)cc3)CC2)cc1NS(=O)(=O)c1ccc(NC(C)C)nc1"
readout_type = "inhibition at 100 µM"
value_measured = "92%"

[[record]]
smiles_str = "Cc1ccc(C(=O)N2CCC(c3ccc(C#N)cc3)CC2)cc1NS(=O)(=O)CCN"
readout_type = "inhibition at 100 µM"
value_measured = "93%"

[[record]]
smiles_str = "CCOC(=O)NCc1ccc(C2CCN(C(=O)c3ccc(C)c(NS(C)(=O)=O)c3)CC2)cc1"
readout_type = "inhibition at 100 µM"
value_measured = "85.5%"

[[record]]
smiles_str = "Cc1ccc(C(=O)N2CCC(c3ccc(C#N)cc3)CC2)cc1NS(=O)(=O)C1CCN(C(C)C)CC1"
readout_type = "inhibition at 100 µM"
value_measured = "94%"

[[record]]
smiles_str = "Cc1ccc(C(=O)N2CCC(c3ccc(C#N)cc3)CC2)cc1NS(=O)(=O)c1cnn(C)c1"
readout_type = "inhibition at 100 µM"
value_measured = "97%"

[[record]]
smiles_str = "CC(=O)NCCS(=O)(=O)Nc1cc(C(=O)N2CCC(c3ccc(C#N)cc3)CC2)ccc1C"
readout_type = "inhibition at 100 µM"
value_measured = "95%"

[[record]]
smiles_str = "COc1cc(C2CCN(C(=O)c3ccc(C)c(NS(C)(=O)=O)c3)CC2)ccc1C#N"
readout_type = "inhibition at 100 µM"
value_measured = "81%"

[[record]]
smiles_str = "Cc1ccc(C(=O)N2CCC(c3ccc(CNS(=O)(=O)N(C)C)cc3)CC2)cc1NS(C)(=O)=O"
readout_type = "inhibition at 100 µM"
value_measured = "95.7%"

[[record]]
smiles_str = "Cc1ccc(C(=O)N2CCC(c3ccc(C#N)cc3)CC2)cc1NS(=O)(=O)c1c(Cl)nc2sccn12"
readout_type = "inhibition at 100 µM"
value_measured = "98%"

[[record]]
smiles_str = "Cc1ccc(C(=O)N2CCC(c3ccc(C(=O)NC4CC4)cc3)CC2)cc1NS(C)(=O)=O"
readout_type = "inhibition at 100 µM"
value_measured = "84%"

[[record]]
smiles_str = "CC(=O)NCc1ccc(C2CCN(C(=O)c3ccc(C)c(NS(C)(=O)=O)c3)CC2)cc1"
readout_type = "inhibition at 100 µM"
value_measured = "83%"

[[record]]
smiles_str = "Cc1ccc(C(=O)N2CCC(c3ccc(C#N)cc3)CC2)cc1NS(=O)(=O)c1cccnc1"
readout_type = "inhibition at 100 µM"
value_measured = "92%"

[[record]]
smiles_str = "Cc1cc(C)c(C(=O)N2CCC(c3ccc(C#N)cc3)CC2)cc1NS(=O)(=O)Cc1ccccc1"
readout_type = "inhibition at 100 µM"
value_measured = "93%"

[[record]]
smiles_str = "Cc1ccc(C(=O)N2CCC(c3ccc(C#N)cc3)CC2)cc1NS(=O)(=O)C(C)C"
readout_type = "inhibition at 100 µM"
value_measured = "96%"

[[record]]
smiles_str = "CCn1ncc(S(=O)(=O)Nc2cc(C(=O)N3CCC(c4ccc(C#N)cc4)CC3)ccc2C)c1C"
readout_type = "inhibition at 100 µM"
value_measured = "98%"


Measured values drawn from patent US20090105305A1 for this set.
